B1: LINE1-mini (parent)
chain: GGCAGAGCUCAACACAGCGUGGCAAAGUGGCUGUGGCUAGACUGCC

# Variants of: B1
# Assay comment: self-cleavage, relative activity (ratio to wild type); higher = more cleavage; in vitro, sequencing; the parent is a self-cleaving ribozyme
Measured self-cleavage values are reported for all entries that follow.
Number only, no unit.

Record excerpt, results attached:
{"Sequence string": "GGCAGAGAUCAACACAGCGGGGCAAAGUGGCUGUGGCUAGACUGCC", "self-cleavage": 0.15}
{"Sequence string": "GGCAGAGCUCAACACAGCUUGGCAAAGUGGCUGUGGCUUGACUGCC", "self-cleavage": 0.58}

Qu. Any idea what its self-cleavage is? The variant is GGCAGAUAUCAACACAGCGUGGCAAAGUGGCUGUGGCUAGACUGCC
Ans. 0.3

Qu. Any idea what its self-cleavage is? The variant is GGCAGAGCUGAACACAGUGUGGCAAAGUGGCUGUGGCUAGACUGCC
Ans. 0.09

Qu. Any idea what its self-cleavage is? The variant is GGCAGGGCUCAACACAGCGUGGCAAAGUGGCAGUGGCUAGACUGCC
Ans. 0.07

Qu. Any idea what its self-cleavage is? The variant is GGCAGAUCUCAGCACAGCGUGGCAAAGUGGCUGUGGCUAGACUGCC
Ans. 0.04

Qu. Any idea what its self-cleavage is? The variant is GGUAGAGCUCAACACAGCGUGGCAAAGUGGCUGUGGCUAGACAGCC
Ans. 0.14

Qu. Any idea what its self-cleavage is? The variant is GGCAGAGCUCAACACAGGGUGGCAAAGUGGAUGUGGCUAGACUGCC
Ans. 0.06

Qu. Any idea what its self-cleavage is? The variant is GGCAGAACUCAACACAGCGUGGCAAAGUCGCUGUGGCUAGACUGCC
Ans. 0.07

Qu. Any idea what its self-cleavage is? The variant is GGCAGAGCUCAACACAGCGUGGCUAAGUGGCUGUGGCUAGACUUCC
Ans. 0.19

Qu. Any idea what its self-cleavage is? The variant is GGCAGAGCUCAACACAGAGUGGCAAAGGGGCUGUGGCUAGACUGCC
Ans. 0.5

Qu. Any idea what its self-cleavage is? The variant is GGCAGAGCUCAACACAGCGCGGCAAAGUGGCUGUGGCUAGUCUGCC
Ans. 0.46

Qu. Any idea what its self-cleavage is? The variant is GGCAGAGCUAAACACAGCGUGCCAAAGUGGCUGUGGCUAGACUGCC
Ans. 0.03

Qu. Any idea what its self-cleavage is? The variant is GGCAGAGCUCAACACAGAGUGGCAAAGUGGCUGUGUCUAGACUGCC
Ans. 0.07

Provenance of the data: the RNAGym collection of RNA variant scans (doi:10.7554/elife.90254)
